Sourced from ChEMBL document CHEMBL4138263

Assay: Antiproliferative activity against human KBVIN cells after 72 hrs by sulforhodamine B assay
Format: functional, cell-based
Task for the reader: assign each of the following molecules its reported IC50.
Answers are plain numbers, in µM.

# per-item lookup of IC50; items listed below
1. C/C=C1/CN(C)[C@H]2Cc3c([nH]c4ccccc34)[C@H](c3cc4c(cc3OC)N=C3[C@]5(C(=O)OC)C[C@H]6C[C@H](CC)[C@@H]5N(CC[C@@]34O)C6)C[C@H]1[C@]2(CO)C(=O)OC
2. CC[C@]1(O)C[C@@H]2CN(CCc3c([nH]c4ccccc34)[C@@](C(=O)OC)(c3cc4c(cc3OC)N(C)[C@H]3[C@@](O)(C(=O)OC)[C@H](OC(C)=O)[C@]5(CC)C=CCN6CC[C@]43[C@@H]65)C2)C1 [VINBLASTINE]
3. C/C=C1/CN(C)[C@H]2Cc3c([nH]c4ccccc34)[C@H](c3c(OC)ccc4c5c([nH]c34)[C@]3(C(=O)OC)C[C@H]4C[C@H](CC)[C@@H]3N3C[C@@H]5O[C@H]43)C[C@H]1[C@]2(CO)C(=O)OC
4. C/C=C1/CN(C)[C@H]2Cc3c([nH]c4ccccc34)C(c3c(OC)ccc4c5c([nH]c34)[C@]3(C(=O)OC)C[C@@H]4C[C@H](CC)[C@@H]3N(CC5)C4)C[C@H]1[C@@H]2C(=O)OC (some centres undefined)

Result ::
1. 2.6
2. 2.48
3. 4.7
4. 4.1

----------
Task for the reader: assign each of the following compounds its reported pIC50.
Assay: Antiproliferative activity against human KBVIN cells after 72 hrs by sulforhodamine B assay
Format: functional, cell-based
One number for each entry, as −log10 of the molar value.

[
  {
    "GIVEN_SMILES": "C/C=C1/CN(C)[C@H]2Cc3c([nH]c4ccccc34)[C@H](c3c(OC)ccc4c5c([nH]c34)[C@]3(C(=O)OC)C[C@@H]4C[C@H](CC)[C@@H]3N(CC5)C4)C[C@H]1[C@@]2(CO)C(=O)OC",
    "QUANTITATIVE_READOUT": 5.33
  },
  {
    "GIVEN_SMILES": "CC(=O)O[C@H]1C(=O)[C@@]2(C)[C@H]([C@H](OC(=O)c3ccccc3)[C@]3(O)C[C@H](OC(=O)[C@H](O)[C@@H](NC(=O)c4ccccc4)c4ccccc4)C(C)=C1C3(C)C)[C@]1(OC(C)=O)CO[C@@H]1C[C@@H]2O",
    "QUANTITATIVE_READOUT": 5.63
  }
]

Query :: Fill in the blank: the reported pIC50 of C/C=C1/CN(C)[C@H]2Cc3c([nH]c4ccccc34)[C@H](c3cc4[nH]c5c(c4cc3OC)CCN3C[C@H]4C[C@H](CC)[C@H]3[C@H]5C4)C[C@H]1[C@@H]2C(=O)OC is ____.
Result :: 5.36

----------
Assay: Antiproliferative activity against human KBVIN cells after 72 hrs by sulforhodamine B assay
Type: functional, cell-based
OBSERVATION_TYPE: pIC50
Answers are plain numbers, as −log10 of the molar value.

[
  {
    "GIVEN_SMILES": "C/C=C1/CN2COC[C@@]3(C(=O)OC)[C@@H]1C[C@@H](c1cc4c5c([nH]c4cc1OC)[C@]1(C(=O)OC)C[C@@H]4C[C@H](CC)[C@@H]1N(CC5)C4)c1[nH]c4ccccc4c1C[C@H]23",
    "QUANTITATIVE_READOUT": 5.36
  },
  {
    "GIVEN_SMILES": "CC[C@H]1C[C@@H]2C[C@@]3(C(=O)OC)c4[nH]c5c([C@@H]6C[C@H]7[C@@]8(C(=O)OC)CO[C@H](N(C)[C@H]8Cc8c6[nH]c6ccccc86)[C@@]76O[C@H]6C)c(OC)ccc5c4CCN(C2=O)[C@@H]13",
    "QUANTITATIVE_READOUT": 5.24
  },
  {
    "GIVEN_SMILES": "C/C=C1/CN(C)[C@H]2Cc3c([nH]c4ccccc34)[C@H](c3cc4c5c([nH]c4cc3OC)[C@]3(C(=O)OC)C[C@@H]4C[C@H](CC)[C@@H]3N(CC5)[C@@H]4CC(C)=O)C[C@H]1[C@@]2(CO)C(=O)OC",
    "QUANTITATIVE_READOUT": 5.36
  }
]

Query :: Fill in the blank: the reported pIC50 of C/C=C1/CN(C)[C@H]2Cc3c([nH]c4ccccc34)[C@H](c3cc4c5c([nH]c4cc3OC)[C@]3(C(=O)OC)C[C@@H]4C[C@H](CC)[C@@H]3N(CC5)[C@@H]4CC(C)=O)C[C@H]1[C@]2(CO)C(=O)OC is ____.
Result :: 5.29
